# TEST SYSTEM: HEK-293 cells transfected with dox-inducible human wild type FGFR2 (Homo sapiens (Human))
# Sequence (P21802 22-821): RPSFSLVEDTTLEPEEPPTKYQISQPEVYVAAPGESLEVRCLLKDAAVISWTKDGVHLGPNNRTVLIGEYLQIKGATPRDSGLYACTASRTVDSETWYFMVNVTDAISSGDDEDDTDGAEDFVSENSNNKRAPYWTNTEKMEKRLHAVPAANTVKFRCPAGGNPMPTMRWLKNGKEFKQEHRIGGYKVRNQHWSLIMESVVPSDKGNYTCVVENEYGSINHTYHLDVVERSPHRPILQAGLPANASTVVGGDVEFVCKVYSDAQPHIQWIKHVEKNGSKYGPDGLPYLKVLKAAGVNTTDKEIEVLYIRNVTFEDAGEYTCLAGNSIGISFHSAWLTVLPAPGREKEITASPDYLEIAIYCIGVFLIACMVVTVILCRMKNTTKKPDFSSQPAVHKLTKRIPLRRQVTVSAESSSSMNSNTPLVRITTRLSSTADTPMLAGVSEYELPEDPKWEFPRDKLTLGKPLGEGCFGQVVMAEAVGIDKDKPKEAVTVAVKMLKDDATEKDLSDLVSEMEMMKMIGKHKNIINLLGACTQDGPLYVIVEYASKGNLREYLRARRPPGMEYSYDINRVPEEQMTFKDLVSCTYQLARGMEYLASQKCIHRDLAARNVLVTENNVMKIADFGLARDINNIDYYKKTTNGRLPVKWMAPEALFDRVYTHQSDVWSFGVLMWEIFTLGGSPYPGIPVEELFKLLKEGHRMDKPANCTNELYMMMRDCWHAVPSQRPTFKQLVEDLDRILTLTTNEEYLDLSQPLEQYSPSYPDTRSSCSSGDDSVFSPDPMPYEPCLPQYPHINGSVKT
# MEASUREMENT PROTOCOL: FGFR2 pFGFR cell assay (ELISA)
# STUDY CONDITIONS: HEK-293 dox-inducible FGFR2, 1 hour compound, 30 ng/ml FGF-acidic
IC50 less than 100 nM is label 1; IC50 greater than or equal to 100 nM is label 0.

The following compounds have reported results that may help.
COc1cc(-c2cnn(C3CCN(C(=O)/C=C/CN(C)C)CC3)c2)cn2ncc(C#N)c12 label 1
C=CC(=O)N1CC(C)(CN2CCC(n3ncc(-c4cc(OC)c5c(C#N)cnn5c4)c3C)CC2)C1 label 0

In the record for "C=CC(=O)N1CC(CN2CCC(n3ncc(-c4cc(OC)c5c(C#N)cnn5c4)c3C)CC2)C1" , is IC50 less than 100 nM?
label 1

Item "COc1cc(-c2cnn(C3CCN(C(=O)C4CN(C(=O)/C=C/CCl)C4)CC3)c2)cn2ncc(C#N)c12" : IC50 beneath 100 nM, strictly?
label 0

Consider the compound "C=CC(=O)Nc1ccc(CN2CCC(n3cc(-c4cc(OC)c5c(C#N)cnn5c4)cn3)CC2)cc1" . Is its IC50 strictly less than 100 nM?
label 1

Input "C=CC(=O)N1CCC(n2cc(-c3cc(OC)c4c(C#N)cnn4c3)cn2)CC1" ; condition: IC50 strictly below 100 nM. Does it hold?
label 1

Quick check: does "C=CC(=O)N1CC(C(=O)N2CCN(c3ccc(-c4cc(OC)c5c(C#N)cnn5c4)cn3)CC2)C1" have IC50 under 100 nM?
label 0

Please determine if "C=CC(=O)N1CC(C(=O)N2C3CCC2CN(c2ccc(-c4cc(OC)c5c(C#N)cnn5c4)cn2)C3)C1" is below 100 nM in terms of IC50.
label 0

Strictly below 100 nM in IC50? "C=CC(=O)N1CC(C(=O)N2CCC3(CC2)CN(c2ccc(-c4cc(OC)c5c(C#N)cnn5c4)cn2)C3)C1"
label 0

Could you please tell me whether IC50 recorded for "C=CC(=O)N1CC(CN2CCC(n3ncc(-c4cc(OC)c5c(Cl)cnn5c4)c3C)CC2)C1" is less than 100 nM?
label 0

----------
# TEST SYSTEM: recombinant human FGFR3 (amino acids R397-T806) (Homo sapiens (Human))
# MEASUREMENT PROTOCOL: FGFR3 enzyme activity assay (LanthaScreen TR-FRET)
# STUDY CONDITIONS: 25 μM ATP, 10 min incubation at 22° C., average of multiple determinations if made, read-out: FGFR3 Enz FRET IC50
# IC50 annotations
Write the numeric value and follow it with the unit.

COMPOUND	IC50
C=CC(=O)N1CCC[C@@H](C(=O)N2CCC(n3cc(-c4cc(OC)c5c(C#N)cnn5c4)cn3)CC2)C1 [Example 17]	6 nM
C=CC(=O)N[C@H]1C[C@H](C(=O)N2CC(n3cc(-c4cc(OC)c5c(C#N)cnn5c4)cn3)C2)C1 [Example 79]	10 nM

Below: the item to evaluate.
Any idea what IC50 came out for C=CC(=O)Nc1ccc(C(=O)N2CC[C@H](n3cc(-c4cc(OC)c5c(C#N)cnn5c4)cn3)C2)cc1C [Example 70] on recombinant human FGFR3 (amino acids R397-T806) (Homo sapiens (Human))?
6 nM

----------
# TEST SYSTEM: recombinant human FGFR3 (amino acids R397-T806) (Homo sapiens (Human), UniProt P22607)
# Sequence (P22607 397-806): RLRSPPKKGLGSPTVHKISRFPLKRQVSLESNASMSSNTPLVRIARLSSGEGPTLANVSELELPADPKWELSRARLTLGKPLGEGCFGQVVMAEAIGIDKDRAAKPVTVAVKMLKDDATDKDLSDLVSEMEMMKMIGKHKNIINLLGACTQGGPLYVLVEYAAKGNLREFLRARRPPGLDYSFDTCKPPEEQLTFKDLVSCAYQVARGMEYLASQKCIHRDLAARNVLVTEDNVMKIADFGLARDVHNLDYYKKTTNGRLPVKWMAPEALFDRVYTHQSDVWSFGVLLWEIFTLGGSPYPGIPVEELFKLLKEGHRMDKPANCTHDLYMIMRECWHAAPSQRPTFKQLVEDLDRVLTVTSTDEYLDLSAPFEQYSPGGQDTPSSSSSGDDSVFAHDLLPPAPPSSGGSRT
# MEASUREMENT PROTOCOL: FGFR3 enzyme activity assay (LanthaScreen TR-FRET)
# STUDY CONDITIONS: 25 μM ATP, 10 min incubation at 22° C., average of multiple determinations if made, read-out: FGFR3 Enz FRET IC50
Labelling: IC50 reported below 6 nM becomes T; at or above becomes F.

Confirm or reject: IC50 of "C=CC(=O)N1CC2CC(C1)N2C(=O)N1CCC(n2cc(-c3cc(OC)c4c(C#N)cnn4c3)cn2)CC1" lies strictly below 6 nM
T

State whether 6 nM exceeds IC50 recorded for "C=CC(=O)N1CC(C(=O)N2CCC(n3cnc(-c4cc(OC)c5c(C#N)cnn5c4)c3)CC2)C1" .
F

Strictly below 6 nM: is that where IC50 of "C=CC(=O)N1CC(C(=O)N2CC[C@H](n3cc(-c4cc(OC)c5c(C#N)cnn5c4)cn3)C2)C1" sits?
T

IC50 strictly < 6 nM for this molecule? "C=CC(=O)N1CC(C(=O)N2CCC(n3cc(-c4cc(-c5ccccc5F)c5c(C#N)cnn5c4)cn3)CC2)C1"
T

Consider the molecule "C=CS(=O)(=O)N1CCC2(CC1)CC(C(=O)N1CCC(n3cc(-c4cc(OC)c5c(C#N)cnn5c4)cn3)CC1)C2" . Is its IC50 strictly less than 6 nM?
T

----------
# TEST SYSTEM: phosphorylated FGFR3 (SEQ ID NO: 5, amino acids 449 to 759) (Homo sapiens (Human), UniProt P22607)
# Sequence (P22607 449-759): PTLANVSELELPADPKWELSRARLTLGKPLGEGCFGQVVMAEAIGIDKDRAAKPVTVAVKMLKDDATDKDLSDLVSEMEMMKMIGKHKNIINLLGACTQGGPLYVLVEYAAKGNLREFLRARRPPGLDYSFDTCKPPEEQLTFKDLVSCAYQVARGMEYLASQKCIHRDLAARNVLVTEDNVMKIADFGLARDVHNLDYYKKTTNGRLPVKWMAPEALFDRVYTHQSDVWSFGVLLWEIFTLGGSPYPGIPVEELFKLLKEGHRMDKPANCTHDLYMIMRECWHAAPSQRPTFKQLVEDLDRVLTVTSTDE
Listing of entries alongside the reported IC50.

Some compounds with known IC50 results, for comparison:
C=CC(=O)N1CC(C(=O)N2C[C@@H]3C[C@H]2CN3c2ccc(-c3cc(OC)c4c(C#N)cnn4c3)cn2)C1 9 nM
COc1cc(-c2cnn(C3CCN(C(=O)C4CN(C(=O)/C=C/CN5CCOCC5)C4)CC3)c2)cn2ncc(C#N)c12 6 nM
C=CC(=O)N1CC(C)(C(=O)N2CCC(n3ncc(-c4cc(OC)c5c(C#N)cnn5c4)c3C)CC2)C1 9 nM
C=CC(=O)N1CC[C@@H](C(=O)N2CCN(c3ccc(-c4cc(OC)c5c(C#N)cnn5c4)cn3)CC2)C1 8 nM

Next:
Quick one: IC50 of "COc1cc(-c2cnn(C3CCN(C(=O)C4(C)CN(C(=O)/C=C/CN(C)C)C4)CC3)c2C)cn2ncc(C#N)c12" ?
6 nM

----------
# TEST SYSTEM: phosphorylated FGFR3 (SEQ ID NO: 5, amino acids 449 to 759) (Homo sapiens (Human), UniProt P22607)
PROPERTY MEASURED: pIC50
Reminder that pIC50 is minus the log10 of a molar concentration.

C=CC(=O)N1CC(C(=O)N2CCC(n3cc(-c4cc(OC)c5c(Cl)cnn5c4)cn3)CC2)C1 8.15

Value lookup for pIC50; key = "C=CC(=O)Nc1cccc(C(=O)N2CCC(n3cc(-c4cc(OC)c5c(C#N)cnn5c4)cn3)CC2)c1"
8.10

So what does the record say about pIC50 for "C=CC(=O)N1CC(C(=O)N2CCC(n3cc(-c4cc(OCC(C)C)c5c(C#N)cnn5c4)cn3)CC2)C1" ?
8.22

Which pIC50 is listed for "C=CC(=O)N1CC(C(=O)N2CCC(n3cc(-c4cc(OC(C)C)c5c(C#N)cnn5c4)cn3)CC2)C1" ?
8.00

Name the recorded pIC50 for "C=CC(=O)N1CCC[C@@H](C(=O)N2CCC(n3cc(-c4cc(OC)c5c(C#N)cnn5c4)cn3)CC2)C1" .
8.10
